Provenance of the data: ChEMBL document CHEMBL4152343

Test: Metabolic stability in mouse liver microsomes assessed as parent compound remaining after 10 mins by LC-MS/MS analysis
Type: ADME, microsome
Study Conditions: read-out: Stability
Attribute Measured: remaining at 10 min
Please state the number and follow it with the unit.

Solved entries:
# Smiles Notation, Reported Measurement
records = [
    ("CN1Cc2cccc(N3CCNCC3)c2C[C@@H]1CN(C)[C@H]1CCCc2cccnc21", "100%"),
    ("COCCN(C[C@H]1Cc2c(cccc2N2CCNCC2)CN1)[C@H]1CCCc2cccnc21", "83.7%"),
]

Continue with the next compound.
IN: Recorded remaining at 10 min for CN(C[C@H]1Cc2c(cccc2N2CCN(c3cccc(C(F)(F)F)c3)CC2)CN1)[C@H]1CCCc2cccnc21 , please?
OUT: 72.3%
